Tested on: HBV
Assay: HBsAg inhibition in HBV infected dHepaRG cells, gymnosis, single oligonucleotides and combinations (Examples 6-8, Tables 16-19)
Type: cell-based, hepatitis B virus
Settings: PAPD7 targeting compounds, 20 μM, day 11 post-infection, average of 3
l = locked nucleic acid (LNA); d = 2'-deoxy (DNA)

Substance	Tested system	% HBsAg Inhibition Avg
232_1 (antisense CGATTTTATCACCAACA; sugars from the 5' end l4 d11 l2, backbone and methylation of C not given here)	HBV	−48.3%
197_1 (antisense GAggttttttttagtgAATT; gapmer: modified flanks, DNA gap, flank modification and linkages not given here, as printed in the source, key not given here)	HBV	−24.9%
190_1 (antisense AAgagtgggttgtaAGC; LNA gapmer implied, flank and gap sizes given, nucleotide key not given here, as printed in the source, key not given here)	HBV	−31.5%
229_1 (antisense AGTAAACCACTGTCCA; sugars from the 5' end l2 d11 l3, backbone and methylation of C not given here)	HBV	60.5%
153_1 (antisense CAgtagtaaccacCAAG; gapmer 2-11-4: modified flanks, DNA gap, flank chemistry and linkages not given here, as printed in the source, key not given here)	HBV	−32.3%
155_1 (antisense ACttagtaatagcaGCA; gapmer 2-12-3: modified flanks, DNA gap, flank chemistry and linkages not given here, as printed in the source, key not given here)	HBV	−35.8%
183_1 (antisense CATTGCTTTTATAATCCTA; sugars from the 5' end l4 d13 l2, backbone and methylation of C not given here)	HBV	−31.7%
184_1 (antisense CTTTTTAAGGACAGGAGG; sugars from the 5' end l4 d12 l2, backbone and methylation of C not given here)	HBV	−46.6%
171_1 (antisense CAGCATAATTGTTTTCTTT; gapmer 3-13-3, DNA gap, modified flanks, flank chemistry and linkages not given here)	HBV	−34.4%
221_1 (antisense ATttatcaacttcCACC; gapmer 2-11-4, flank modification and linkages not given here, as printed in the source, key not given here)	HBV	−36.4%
